# TARGET OR TEST SYSTEM: glutathione S-transferase (GST)-fused full-length human Syk protein (Homo sapiens, UniProt P43405)
# Construct: (GST)-fused full-length human Syk protein; GST (glutathione S-transferase); purchased Carna Biosciences
# EXPERIMENT SUMMARY: Syk enzyme assay
# Format: biochemical
# ASSAY CONTEXT: Syk enzyme assay, Test Example 1; read-out: IC50 of Syk-inhibitory activity
# Experimental: A glutathione S-transferase (GST)-fused full-length human Syk protein (Carna Biosciences), which had been generated using a Baculovirus expression system, was used in the Syk enzyme assay. 15 μl of a reaction solution (1.2 ng Syk, 20 mM HEPES, 10 mM MgCl2, 50 mM NaCl, 2 mM DTT, 0.05% BSA, pH 7.0) containing a Syk protein and a predetermined concentration of a test compound was shaken for 2 minutes, and it was then left at rest at room temperature for 13 minutes. […]
Below, each entry is listed alongside its reported IC50.

Reference set, count: 5
NC(=O)c1cc(F)c(NC2CCCC[C@@H]2N)nc1Nc1cnc2c(NS(=O)(=O)c3ccc(C(F)(F)F)cc3)cccc2c1 (stereo partly drawn) ... 100 to 1000 nM
CCC[C@@H](Nc1nc(Nc2ccnc(OC)c2)c(C(N)=O)cc1F)[C@H](C)N ... < 10 nM
NC(=O)c1cc(F)c(NCc2cnn[nH]2)nc1Nc1ccc2ncccc2c1 ... 50 to 100 nM
CCCc1nn(CCF)c2ccc(Nc3nc(N[C@@H]4CCCC[C@@H]4N)c(F)cc3C(N)=O)cc12 ... < 10 nM
CCNc1nc(Nc2ccc3cn[nH]c3c2)c(C(N)=O)cc1F ... 50 to 100 nM

Consider the compound shown here: C[C@H](N)[C@@H](C)Nc1nc(Nc2cncc(-n3cccn3)c2)c(C(N)=O)cc1F (racemic) What is its recorded IC50?
10 to 50 nM

Consider the compound shown here: NC(=O)c1cc(F)c(N[C@@H]2CCCC[C@@H]2N)nc1Nc1ccc2[nH]c(C(=O)N3CCOCC3)cc2c1 (relative stereo) What is its recorded IC50?
< 10 nM

Consider the compound shown here: CCC[C@@H](Nc1nc(Nc2ccc3nccnc3c2)c(C(N)=O)cc1F)[C@H](C)N What is its recorded IC50?
< 10 nM

----------
# TARGET OR TEST SYSTEM: glutathione S-transferase (GST)-fused full-length human Syk protein (Homo sapiens, UniProt P43405)
# Construct: (GST)-fused full-length human Syk protein; GST (glutathione S-transferase); purchased Carna Biosciences
# EXPERIMENT SUMMARY: Syk enzyme assay
# Type: biochemical
# ASSAY CONTEXT: Syk enzyme assay, Test Example 1; read-out: IC50 of Syk-inhibitory activity
METRIC NAME: IC50

Reference set, count: 5
Cc1cc(Nc2nc(N[C@H](CCCN(C)C)[C@H](C)N)c(F)cc2C(N)=O)cnc1C ... 100 to 1000 nM
COc1ncc(Nc2nc(NC3CCCCC3N)c(F)cc2C(N)=O)cc1-n1nccn1 (stereo not drawn) ... 10 to 50 nM
CC[C@@H](Nc1nc(Nc2cnc3ccc(OC)cc3c2)c(C(N)=O)cc1F)[C@H](C)N ... < 10 nM
CC(C)C[C@@H](Nc1nc(Nc2ccc3ncccc3c2)c(C(N)=O)cc1F)[C@H](C)N ... < 10 nM
NC(=O)c1cc(F)c(N[C@@H]2CCCC[C@@H]2N)nc1Nc1cc(-n2ccnn2)nc2[nH]ccc12 (relative stereo) ... < 10 nM

Consider the compound shown here: CNC(=O)c1cc(Nc2nc(NC3CCCC[C@@H]3N)c(F)cc2C(N)=O)ccn1 (stereo partly drawn) What is its recorded IC50?
10 to 50 nM

Consider the compound shown here: Cc1ncc(Nc2nc(N[C@H](C3CC3)[C@H](C)N)c(F)cc2C(N)=O)cc1-n1nccn1 What is its recorded IC50?
< 10 nM

Consider the compound shown here: Cc1ncc(Nc2nc(N[C@H](CC(C)C)[C@H](C)N)c(F)cc2C(N)=O)cc1-n1nccn1 What is its recorded IC50?
< 10 nM

Consider the compound shown here: COCCn1ncc2ccc(Nc3nc(NC4CCCCC4N)c(F)cc3C(N)=O)cc21 (stereo not drawn) What is its recorded IC50?
< 10 nM

Consider the compound shown here: CCC[C@@H](Nc1nc(Nc2cncc(-n3nccn3)c2)c(C(N)=O)cc1F)[C@H](C)N What is its recorded IC50?
< 10 nM

Consider the compound shown here: NC(=O)c1cc(F)c(NC2CCCCC2N)nc1Nc1cncc(-c2ccc3cccnc3c2)c1 (stereo not drawn) What is its recorded IC50?
< 10 nM
